System: AKT3;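 further: KINOMEscan kinase panel screen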
conditions.used: concentration: 1 μM, replicates: in singlicate; n = 1
Each item that follows carries a reported %Inh.
Entry rule: numbers only, all in %.

Example cases with answers are listed next.
INSERT INTO measurements (molecule, target_entity, measurement) VALUES
  ('O=C(O)COc1ncnc2cc(-c3ccc4[nH]ncc4c3)sc12', 'AKT3', 17),
  ('COc1ccccc1CNC(=O)c1cc(C(=O)c2ccccc2C)c[nH]1 [GSK364507]', 'AKT3', 0),
  ('COc1ccc(Nc2nccc(NCCNC(=O)Nc3ccccc3F)n2)cc1 [GSK1379901]', 'AKT3', 0),
  ('CC(C)(C)c1ccc(C(=O)Nc2cn3cc(Cl)ccc3n2)cc1', 'AKT3', 0),
  ('COc1cc2ncnc(Nc3ccc4nc(-c5ccccc5)[nH]c4c3)c2cc1OC.Cl [GW282450]', 'AKT3', 0);

# %Inh (molecule: COC(=O)c1c(-c2ccccc2)c2cc(OC)ccc2c(=O)n1Cc1ccccc1 ) is 0

# %Inh (molecule: COC(=O)c1c(-c2ccccc2)c2cc(C(=O)O)ccc2c(=O)n1Cc1ccccc1 ) is 1

# %Inh (molecule: CSc1nn2c(=O)cc(N3CCOCC3)nc2n1Cc1cccc(C(F)(F)F)c1C [GSK2363608] ) is 0

# %Inh (molecule: Cc1ccc(NC(=O)Nc2cccc(Cl)c2)cc1-c1ccc(C(=O)Nc2ccncc2)cc1 [GSK1398468] ) is 0

# %Inh (molecule: Cl.NC(=O)c1cccc(Nc2nccc(Nc3ccc(Oc4cccc(Cl)c4)c(Cl)c3)n2)c1 [GW659008] ) is 0

# %Inh (molecule: NC(=O)c1nnc2ccccc2c1N ) is 0

# %Inh (molecule: Cl.O=C(Nc1cccc(-c2nn3ncccc3c2-c2ccnc(Nc3cccnc3)n2)c1)c1c(F)cccc1F [GSK312879] ) is 10
